measurement.kind: melting point

INSERT INTO measurements (compound, measurement_kind, result) VALUES
  ('COc1ccc(N2Cc3cnc(Nc4ccccc4)nc3N([C@@H](C)CO)C2=O)cc1 [Example 15d]', 'melting point', '140 to 147 °C'),
  ('COc1ccc(N2Cc3cnc(Nc4ccccc4)nc3N(C[C@H](C)O)C2=O)cc1 [Example 31d]', 'melting point', '188 to 193 °C'),
  ('COc1ccc(N2Cc3cnc(Nc4ccccc4)nc3N([C@H](C)CO)C2=O)cc1 [Example 23d]', 'melting point', '156 to 163 °C'),
  ('COc1ccc(N2Cc3cnc(Nc4ccccc4)nc3N(C[C@@H](C)O)C2=O)cc1 [Example 28d]', 'melting point', '189 to 193 °C');

Now examine the next entry.
Give the value of melting point reported for the following: COc1ccc(N2Cc3cnc(Nc4ccc(F)cc4)nc3N([C@@H](C)CO)C2=O)c(F)c1 [Example 21b] 173 to 177 °C

Origin of the recorded values: patent US7115740B2
